Target: Ribosomal protein S6 kinase beta-1 (Homo sapiens)
Sequence (P23443 whole entry): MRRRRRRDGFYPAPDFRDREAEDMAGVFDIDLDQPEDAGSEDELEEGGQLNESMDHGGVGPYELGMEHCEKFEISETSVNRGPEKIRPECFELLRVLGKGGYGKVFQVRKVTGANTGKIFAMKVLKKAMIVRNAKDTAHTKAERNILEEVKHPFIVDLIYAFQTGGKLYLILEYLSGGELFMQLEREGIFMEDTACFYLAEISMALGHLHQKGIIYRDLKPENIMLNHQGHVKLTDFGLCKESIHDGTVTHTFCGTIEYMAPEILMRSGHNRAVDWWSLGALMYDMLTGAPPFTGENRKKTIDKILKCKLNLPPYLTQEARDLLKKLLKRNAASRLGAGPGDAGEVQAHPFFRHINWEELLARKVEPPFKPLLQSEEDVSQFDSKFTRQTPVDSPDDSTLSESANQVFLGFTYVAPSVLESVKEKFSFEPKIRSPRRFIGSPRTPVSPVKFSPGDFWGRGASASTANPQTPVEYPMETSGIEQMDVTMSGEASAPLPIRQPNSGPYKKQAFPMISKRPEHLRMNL
Test: Inhibition of P70S6K
property name: pIC50
// scale note: pIC50 = -log10(conc_M); give the bare number

Using the record for Cc1[nH]nc2ccc(-c3cc(OC[C@@H](N)Cc4c[nH]c5ccccc45)cnc3-c3ccoc3)cc12 , report its pIC50.
8.15

----------
Biological target: RAC-gamma serine/threonine-protein kinase (Homo sapiens, UniProt Q9Y243)
Sequence (Q9Y243 whole entry): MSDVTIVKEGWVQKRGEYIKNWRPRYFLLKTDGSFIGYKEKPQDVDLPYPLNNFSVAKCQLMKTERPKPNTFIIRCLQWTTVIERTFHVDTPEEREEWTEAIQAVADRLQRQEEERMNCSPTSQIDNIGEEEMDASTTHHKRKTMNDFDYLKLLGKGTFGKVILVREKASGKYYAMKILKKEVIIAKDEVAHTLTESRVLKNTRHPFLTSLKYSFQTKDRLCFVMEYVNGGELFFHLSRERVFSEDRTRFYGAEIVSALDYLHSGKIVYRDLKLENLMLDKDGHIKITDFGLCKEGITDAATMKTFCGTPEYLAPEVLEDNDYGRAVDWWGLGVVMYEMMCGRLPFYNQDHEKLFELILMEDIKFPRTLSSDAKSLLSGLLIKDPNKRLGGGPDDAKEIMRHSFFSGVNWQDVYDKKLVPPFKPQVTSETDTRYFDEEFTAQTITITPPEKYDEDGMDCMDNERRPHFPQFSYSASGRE
Assay: Inhibition of AKT3
Each entry below carries its reported pIC50.
// scale note: pIC50 = -log10(conc_M); give the bare number

A selection of reference data follows.
Using the record for Cc1[nH]nc2ccc(-c3cc(OC[C@@H](N)Cc4c[nH]c5ccccc45)cnc3-c3ccoc3)cc12 , report its pIC50.
9.00

Using the record for Cc1n[nH]c2ncc(-c3cc(OC[C@@H](N)Cc4c[nH]c5ccccc45)cnc3-c3ccoc3)nc12 , report its pIC50.
8.00

Note: attention shifts to another entry.
Using the record for Cc1n[nH]c2cnc(-c3cc(OC[C@@H](N)Cc4c[nH]c5ccccc45)cnc3-c3ccoc3)nc12 , report its pIC50.
7.82

----------
Assay: Inhibition of RSK
property name: pIC50
// scale note: pIC50 = -log10(conc_M); give the bare number

Using the record for Cc1[nH]nc2ccc(-c3cc(OC[C@@H](N)Cc4c[nH]c5ccccc45)cnc3-c3ccoc3)cc12 , report its pIC50.
7.60

----------
IC50, RAC-beta serine/threonine-protein kinase (Homo sapiens, UniProt P31751): measured values
Your answer should be a plain number; it is taken to be in nM.

A selection of reference data follows.
Using the record for Cc1n[nH]c2ncc(-c3cc(OC[C@@H](N)Cc4c[nH]c5ccccc45)cnc3-c3ccoc3)nc12 , report its IC50.
39

Using the record for Cc1[nH]nc2ccc(-c3cc(OC[C@@H](N)Cc4c[nH]c5ccccc45)cnc3-c3ccoc3)cc12 , report its IC50.
12

Note: attention shifts to another entry.
Using the record for Cc1n[nH]c2cnc(-c3cc(OC[C@@H](N)Cc4c[nH]c5ccccc45)cnc3-c3ccoc3)cc12 , report its IC50.
6

----------
Molecular target: Cytochrome P450 2D6 (Homo sapiens)
Sequence (P10635 whole entry): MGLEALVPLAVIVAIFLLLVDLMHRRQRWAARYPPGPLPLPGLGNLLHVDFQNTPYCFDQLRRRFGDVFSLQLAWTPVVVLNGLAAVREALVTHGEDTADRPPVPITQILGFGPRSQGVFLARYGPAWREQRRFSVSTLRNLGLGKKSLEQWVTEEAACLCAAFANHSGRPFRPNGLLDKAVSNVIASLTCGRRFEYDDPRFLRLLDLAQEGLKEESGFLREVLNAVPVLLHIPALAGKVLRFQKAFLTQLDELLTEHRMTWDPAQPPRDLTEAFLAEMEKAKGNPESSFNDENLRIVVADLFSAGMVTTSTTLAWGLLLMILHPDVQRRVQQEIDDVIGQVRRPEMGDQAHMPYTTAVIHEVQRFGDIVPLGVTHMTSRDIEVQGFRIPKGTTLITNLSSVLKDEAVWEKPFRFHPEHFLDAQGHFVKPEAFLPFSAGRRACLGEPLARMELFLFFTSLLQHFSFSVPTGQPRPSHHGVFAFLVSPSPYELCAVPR
property name: pIC50
// scale note: pIC50 = -log10(conc_M); give the bare number

So what pIC50 did Cc1[nH]nc2ccc(-c3cc(OC[C@@H](N)Cc4c[nH]c5ccccc45)cnc3-c3ccoc3)cc12 get with Cytochrome P450 2D6 (Homo sapiens)?
5.30

----------
Assay: Solubility of the compound
Assay type: physicochemical
Classification field: Met = solubility at or over 200 µM; Not met = solubility under 200 µM.

Dear colleague, could you confirm whether Cc1n[nH]c2ncc(-c3cc(OC[C@@H](N)Cc4c[nH]c5ccccc45)cnc3-c3ccoc3)cc12 has solubility at or above 200 µM?
Not met

Others:
Dear colleague, could you confirm whether Cc1n[nH]c2ccc(-c3cc(OC[C@@H](N)Cc4c[nH]c5ccccc45)cnc3-c3ccoc3)nc12 has solubility at or above 200 µM?
Met

Dear colleague, could you confirm whether Cc1[nH]nc2ccc(-c3cc(OC[C@@H](N)Cc4c[nH]c5ccccc45)cnc3-c3ccoc3)cc12 has solubility at or above 200 µM?
Not met

----------
IC50, RAC-alpha serine/threonine-protein kinase (Homo sapiens, UniProt P31749): measured values
Your answer should be a plain number; it is taken to be in nM.

So what IC50 did Cc1[nH]nc2ccc(-c3cc(OC[C@@H](N)Cc4c[nH]c5ccccc45)cnc3-c3ccoc3)cc12 get with RAC-alpha serine/threonine-protein kinase (Homo sapiens, UniProt P31749)?
1

So what IC50 did Cc1n[nH]c2ncc(-c3cc(OC[C@@H](N)Cc4c[nH]c5ccccc45)cnc3-c3ccoc3)nc12 get with RAC-alpha serine/threonine-protein kinase (Homo sapiens, UniProt P31749)?
2

So what IC50 did Cc1n[nH]c2ccc(-c3cc(OC[C@@H](N)Cc4c[nH]c5ccccc45)cnc3-c3ccoc3)nc12 get with RAC-alpha serine/threonine-protein kinase (Homo sapiens, UniProt P31749)?
12

So what IC50 did Cc1n[nH]c2ncc(-c3cc(OC[C@@H](N)Cc4c[nH]c5ccccc45)cnc3-c3ccoc3)cc12 get with RAC-alpha serine/threonine-protein kinase (Homo sapiens, UniProt P31749)?
1
